Listed here: items and their measured CC50.
Tested on: NHDF
Assay: Cytotoxicity against human NHDF cells assessed as cell viability measured after 24 hrs by Cell Titer Glo luminescent assay
Format: cell-based
Conditions: nhdf, 24 h
Supply the numeric figure in µM, leaving out any unit text.

Study these solved cases before continuing.
substance-smiles: COc1cc2c(cc1NC(=O)c1ccc(C(C)(C)C)cc1)CCCC2
readout-unit: µM
measured: 169
//
substance-smiles: CC(C)(C)c1ccc(C(=O)Nc2cc3c(cc2OCc2ccccn2)CCCCC3)cc1
readout-unit: µM
measured: 9.4

Give the reported value of CC50 for this record: `CCOc1cc2c(cc1NC(=O)c1ccc(C(C)(C)C)cc1)CCCC2` 3.86

----------
Listed here: items and their measured logD.
Assay: Octanol-aqueous buffer distribution coefficient, log D of the compound by LC-MS analysis
Assay type: physicochemical

Study these solved cases before continuing.
substance-smiles: CC(C)(C)c1ccc(C(=O)Nc2cc3c(cc2F)CCCCC3)cc1
logD: 4
--
substance-smiles: COc1cc2c(cc1NC(=O)c1ccc(C3(C(F)(F)F)CC3)cc1)CCCCC2
logD: 6
--
substance-smiles: COc1nc2c(cc1C(=O)Nc1ncc(C(C)(C)C)cn1)CCCCC2
logD: 3
--
substance-smiles: COc1nc2c(cc1C(=O)Nc1ccc(C(C)(C)C)cn1)CCCCC2
logD: > 4.7
--
substance-smiles: CC(C)(C)c1ccc(NC(=O)c2cc3c(cc2OC(F)F)CCCCC3)cc1
logD: 5

Please turn your attention to the following entry.
Give the reported value of logD for this record: `CC(C)(C)c1ccc(C(=O)Nc2cc3c(cc2OC(F)(F)F)CCCCC3)cc1` 5

----------
Listed here: items and their measured half-life.
Test: Metabolic stability in human liver microsomes assessed as half life in presence of NADPH incubated up to 45 mins by LC-MS/MS analysis
Format: ADME, Microsome

Study these solved cases before continuing.
substance-smiles: COc1nc2c(cc1C(=O)Nc1ccc(C(C)(C)C)cc1)CCCCC2
half-life: 102 h
--
substance-smiles: COc1cc2c(cc1NC(=O)c1ccc(C(O)(C(F)(F)F)C(F)(F)F)cc1)CCCCC2
half-life: 70 h
--
substance-smiles: CC(C)(C)c1ccc(C(=O)Nc2cc3c(cc2CO)CCCCC3)cc1
half-life: 64 h
--
substance-smiles: CC(C)(C)c1ccc(C(=O)Nc2ccc3c(c2)CCCCC3)cc1
half-life: 33 h
--
substance-smiles: COc1cc2c(cc1C(=O)Nc1ccc(C(C)(C)C#N)cc1)CCCCC2
half-life: 132 h
--
substance-smiles: CC(=O)Oc1cc2c(cc1NC(=O)c1ccc(C(C)(C)C)cc1)CCCCC2
half-life: 7 h
--
substance-smiles: [2H]C([2H])([2H])Oc1cc2c(cc1NC(=O)c1ccc(C(C)(C)C)cc1)CCCCC2
half-life: 31 h
--
substance-smiles: COc1cc2c(cc1NC(=O)c1ccc(C(C)(C)O)cc1)CCCCC2
half-life: 254 h
--
substance-smiles: CC(C)(C)c1ccc(NC(=O)c2cc3c(cc2OC(F)F)CCCCC3)cc1
half-life: 70 h

Please turn your attention to the following entry.
Give the reported value of half-life for this record: `COc1cc2c(cc1NC(=O)c1ccc(C(C)(C)C#N)cc1)CCCCC2` 51 h

----------
Experiment: Metabolic stability in human liver microsomes assessed as half life in presence of NADPH incubated up to 45 mins by LC-MS/MS analysis
Assay type: ADME, Microsome
parameter-measured: half-life (h)
Supply the numeric figure in h, leaving out any unit text.

Study these solved cases before continuing.
substance-smiles: Cc1cc2c(cc1NC(=O)c1ccc(C(C)(C)C)cc1)CCCCC2
half-life (h): 63
--
substance-smiles: CC(C)(C)c1ccc(C(=O)Nc2cc3c(cc2C#N)CCCCC3)cc1
half-life (h): 76

Give the reported value of half-life for this record: `CC(C)(C)c1ccc(C(=O)Nc2cc3c(cc2O)CCCCC3)cc1` 74

Give the reported value of half-life for this record: `COc1nc2c(cc1C(=O)Nc1ncc(C(C)(C)C)cn1)CCCCC2` 67

Give the reported value of half-life for this record: `COc1nc2c(cc1C(=O)Nc1ccc(C(C)(C)C)cn1)CCCCC2` 88

Give the reported value of half-life for this record: `COc1cc2c(cc1NC(=O)c1ccc(C(C)(C)C(F)(F)F)cc1)CCCCC2` 106

Give the reported value of half-life for this record: `CCc1cc2c(cc1NC(=O)c1ccc(C(C)(C)C)cc1)CCCCC2` 37

Give the reported value of half-life for this record: `CC(C)(C)c1ccc(C(=O)Nc2cc3c(cc2F)CCCCC3)cc1` 28

Give the reported value of half-life for this record: `COc1cc2c(cc1C(=O)Nc1ccc(C(C)(C)C)cc1)CCCCC2` 99

Give the reported value of half-life for this record: `CC(C)(C)c1ccc(NC(=O)c2cc3c(cc2O)CCCCC3)cc1` 49

Give the reported value of half-life for this record: `COc1cc2c(cc1NC(=O)c1ccc(C3(C(F)(F)F)CC3)cc1)CCCCC2` 67
